# study_system: INSR (human)
# measurement_description: radiometric filter-binding kinase assay
# condition_description: compound 10.0 µM
residual activity listing for selected compounds.
Please give a number only; it is taken to be in %.

NC(=O)Nc1ccc2c(c1)/C(=C/c1cc(-c3cccnc3)c[nH]1)C(=O)N2    26

Okay, next one:
Lab note: compound CCOC(=O)c1ccc(N2NC(=O)/C(=C/c3ccc([N+](=O)[O-])o3)C2=O)cc1 tested on INSR (human); recorded residual activity was 99

---

residual activity by entry:
# study_system: INSR (human)
# measurement_description: radiometric filter-binding kinase assay
# condition_description: compound 1.0 µM
Form entry: value (%) — number only.

Memo: O=C(O)c1cc(N=Nc2ccc(S(=O)(=O)Nc3ccccn3)cc2)ccc1O , reported residual activity: 101

Item: c1ccc2c(-c3cnn4cc(-c5ccc(N6CCNCC6)cc5)cnc34)ccnc2c1 | residual activity: 107

Summary for this compound, CN1C(=O)[C@@H](Cc2c[nH]c3ccccc23)NC1=S : residual activity is 88

Looking up COc1ccc(N(C(=O)Nc2c(C)cccc2C)c2cc(Nc3ccc(N4CCN(C)CC4)cc3)ncn2)c(OC)c1 , I found its residual activity recorded as 106

// recorded residual activity for CCn1c(-c2nonc2N)nc2cncc(CNC3CCNCC3)c21 : 99

Per the record, C[C@H]1CCCC(=O)CCC/C=C/c2cc(O)cc(O)c2C(=O)O1 has residual activity of 107

Record O=C1Nc2nc(-c3c(O)cccc3OCC3CC3)cc(C3CCCNC3)c2CO1 (stereo not given) . Reported residual activity: 94

Measured residual activity of NC(=O)c1c(NC(=O)C2CC2)sc2c1CCCC2 : 101

Form field residual activity, entry Cc1cc(NC(=O)c2cccc(NC(=O)/C=C/CN(C)C)c2)ccc1Nc1nccc(-c2cccnc2)n1 : 80

Entry CNc1nc(-c2ccc3c(N)n[nH]c3c2)cc(N2C[C@@H](C(=O)NC3CCCCC3)CC[C@H]2C)n1 ; residual activity = 101

Looking up Cc1ccc(=O)n(-c2ccccc2)c1 , I found its residual activity recorded as 110

// residual activity lookup, compound = COc1cc(O)c2c(c1)[C@H]1OC1C[C@H](O)[C@H](O)C(=O)/C=C\C[C@H](C)OC2=O (stereo not given in full) , result: 97

Recorded residual activity (compound NC(=O)c1cc2c(-c3cccc(-c4ccccc4)c3)cnc(N)c2s1 ): 81

Entry COc1cc(O)c2c(c1)/C=C/C[C@H](O)[C@H](O)C(=O)/C=C\C[C@H](C)OC2=O — recorded residual activity = 94

Query O=C(N[C@@H](COc1ccc2[nH]c(=O)[nH]c2c1)c1ccccc1)c1cccn(Cc2ccc(F)c(F)c2)c1=O yields residual activity of 95

# compound NC1(c2ccc(-c3nc4ccn5c(=O)[nH]nc5c4cc3-c3ccccc3)cc2)CCC1 ; its residual activity = 79

Documented residual activity of CCNc1nc(Nc2cc(F)c(C(=O)N3CCOCC3)cc2OC)ncc1C(F)(F)F : 19

Lab note: measured residual activity of NS(=O)(=O)OC[C@@H]1C[C@@H](n2ccc3c(N[C@H]4CCc5ccccc54)ncnc32)C[C@@H]1O was 89

# residual activity (compound: O=C(Nc1nc2cc(C(F)(F)F)cc(NC3CC3)n2n1)c1cccnc1 ) is 100

// field: residual activity; key: N#Cc1c(C2CCNCC2)cc(-c2c(O)cccc2OCC2CC2)nc1N ; value = 51

---

# study_system: MAPK3 (human)
# measurement_description: radiometric filter-binding kinase assay
# condition_description: compound 1.0 µM
measured_metric: residual activity
Your answer should be a number followed by the unit of measure.

CNC(=O)C1[C@H]2O[C@@](C)([C@@H]1N)n1c3ccccc3c3c4c(c5c6ccccc6n2c5c31)C(=O)NC4 (stereo not given in full)    2%

Summary line: Cc1ccc(=O)n(-c2ccccc2)c1 , MAPK3 (human), reported residual activity = 125%

---

# study_system: RPS6KA1 KD1 KD2 (human)
# measurement_description: radiometric filter-binding kinase assay
# condition_description: compound 1.0 µM
measured_metric: residual activity (%)
API: value field is a number in %; no unit string.

Use these answered entries as a reference point.
CNC(=O)C1[C@H]2O[C@@](C)([C@@H]1N)n1c3ccccc3c3c4c(c5c6ccccc6n2c5c31)C(=O)NC4 (stereo not given in full)    1
NC(=O)c1cc2c(-c3cccc(-c4ccccc4)c3)cnc(N)c2s1    65

Hey, RPS6KA1 KD1 KD2 (human) data for C=CC(=O)N1CCC[C@@H](n2nc(-c3ccc(Oc4ccccc4)cc3)c3c(N)ncnc32)C1 : residual activity came out at 101

Log: RPS6KA1 KD1 KD2 (human), molecule COc1cc(C(=O)N2CCOCC2)c(F)cc1Nc1ncc(C(F)(F)F)c(NC2CC2)n1 , residual activity = 54

Reading of residual activity for CCCCCc1ccc(/C=C/[C@H](O)[C@@H](CO)NC)cc1 with RPS6KA1 KD1 KD2 (human): 98

Entry CC1=C(CO)C(=O)O[C@@H]([C@@H](C)[C@H]2CC[C@H]3[C@@H]4C[C@H]5O[C@]56[C@@H](O)C=CC(=O)[C@]6(C)C4CC[C@]23C)C1 (stereo not given in full) : residual activity on RPS6KA1 KD1 KD2 (human) = 101

Query c1ccc2c(-c3cnn4cc(-c5ccc(N6CCNCC6)cc5)cnc34)ccnc2c1 on RPS6KA1 KD1 KD2 (human); residual activity returned: 79

Record Cc1cc(SCc2sc(-c3ccc(C(F)(F)F)cc3)nc2C)ccc1OCC(=O)O / RPS6KA1 KD1 KD2 (human), residual activity recorded as 106

Lab entry: RPS6KA1 KD1 KD2 (human) assay, molecule COc1ccc(-n2ncc3cnc(Nc4cc(OC)c(OC)c(OCCCN5CCN(C)CC5)c4)nc32)cc1 , residual activity = 7

Value sought: residual activity, system RPS6KA1 KD1 KD2 (human), item CCNc1nc(Nc2cc(F)c(C(=O)N3CCOCC3)cc2OC)ncc1C(F)(F)F . Result: 21

COc1ccc(N(C(=O)Nc2c(C)cccc2C)c2cc(Nc3ccc(N4CCN(C)CC4)cc3)ncn2)c(OC)c1 on RPS6KA1 KD1 KD2 (human) gives residual activity = 38

Entry CCn1c(-c2nonc2N)nc2cncc(CNC3CCNCC3)c21 , tested on RPS6KA1 KD1 KD2 (human), has a reported residual activity of 15

Tested on RPS6KA1 KD1 KD2 (human), the item N#Cc1c(C2CCNCC2)cc(-c2c(O)cccc2OCC2CC2)nc1N showed residual activity equal to 45

The value of residual activity recorded for Cc1cccc(Nc2nn(C)c3ncnc(N)c23)c1 when tested on RPS6KA1 KD1 KD2 (human) reads 108

GET /values?item= CC(C)(C#N)c1ccc(N2C(=O)OCc3cnc4ccc(-c5cnc6ccccc6c5)cc4c32)cc1 &system= RPS6KA1 KD1 KD2 (human) returns residual activity: 96

Form field, residual activity with RPS6KA1 KD1 KD2 (human), item FC(F)(F)c1ccc(-c2ccc(Oc3cncc4sc(-c5nn[nH]n5)cc34)cc2)cc1 : 122

residual activity of NC(=O)c1c(NC(=O)C2CC2)sc2c1CCCC2 , assay on RPS6KA1 KD1 KD2 (human), is 101

# residual activity measured on RPS6KA1 KD1 KD2 (human) for item O=C(N[C@@H](COc1ccc2[nH]c(=O)[nH]c2c1)c1ccccc1)c1cccn(Cc2ccc(F)c(F)c2)c1=O = 93

---

# study_system: ABL1 (human)
# measurement_description: radiometric filter-binding kinase assay
# condition_description: compound 10.0 µM
Documented residual activity across a set of compounds
Answer shape: numeric part, then the unit.

Please review the entries below; each comes with its answer.
CC(C)C[C@H](NC(=O)CNC(=O)c1cc(Cl)ccc1Cl)B1OC(=O)CC(CC(=O)O)(C(=O)O)O1 (stereo partly drawn)    101%
COc1cc(C(=O)N2CCOCC2)c(F)cc1Nc1ncc(C(F)(F)F)c(NC2CC2)n1    97%
C=CC(=O)N1CCC[C@@H](n2nc(-c3ccc(Oc4ccccc4)cc3)c3c(N)ncnc32)C1    39%
Cc1ccc(-c2ccc3c(ccc4sc5c(c43)NC[C@@H](C)NC5=O)n2)cn1    76%
O=C(N[C@@H](COc1ccc2[nH]c(=O)[nH]c2c1)c1ccccc1)c1cccn(Cc2ccc(F)c(F)c2)c1=O    98%

Read the next record carefully.
// sample CC(C)(C#N)c1ccc(N2C(=O)OCc3cnc4ccc(-c5cnc6ccccc6c5)cc4c32)cc1 , its residual activity was 103%

---

Recorded residual activity, one value per entry.
# study_system: MST4 (human) (UniProt Q9P289)
# Sequence (Q9P289 whole entry, looked up): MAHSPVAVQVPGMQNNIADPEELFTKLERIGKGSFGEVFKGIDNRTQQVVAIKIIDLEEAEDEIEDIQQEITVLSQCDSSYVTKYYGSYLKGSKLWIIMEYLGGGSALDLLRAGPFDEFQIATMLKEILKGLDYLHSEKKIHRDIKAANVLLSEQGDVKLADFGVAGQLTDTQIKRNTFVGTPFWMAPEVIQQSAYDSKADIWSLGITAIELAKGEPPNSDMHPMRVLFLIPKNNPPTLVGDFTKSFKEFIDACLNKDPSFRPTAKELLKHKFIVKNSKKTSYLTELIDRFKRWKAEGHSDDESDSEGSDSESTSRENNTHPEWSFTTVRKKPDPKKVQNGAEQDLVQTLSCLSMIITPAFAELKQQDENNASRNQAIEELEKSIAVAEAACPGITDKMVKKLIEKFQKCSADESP
# measurement_description: radiometric filter-binding kinase assay
# condition_description: compound 0.1 µM
Numbers only; they are read as %.

Reference set (2 entries):
Cc1cc(NC(=O)c2cccc(NC(=O)/C=C/CN(C)C)c2)ccc1Nc1nccc(-c2cccnc2)n1    96
CCCCCc1ccc(/C=C/[C@H](O)[C@@H](CO)NC)cc1    116

# compound C=CC(=O)N1CCC[C@@H](n2nc(-c3ccc(Oc4ccccc4)cc3)c3c(N)ncnc32)C1 ; its residual activity = 100

Summary for this compound, CNC(=O)C1[C@H]2O[C@@](C)([C@@H]1N)n1c3ccccc3c3c4c(c5c6ccccc6n2c5c31)C(=O)NC4 (some centres not stated) : residual activity is 26

Cc1ccc(Sc2cnc(Nc3cccc(Br)n3)s2)cc1C(=O)N1CCN(C(=O)CN)CC1 yielded residual activity of 50

The reported value for Cc1cccc(-c2nn(C(=S)Nc3ccccc3)cc2-c2ccnc3ccccc23)n1 in terms of residual activity is 95

residual activity recorded for this compound, c1ccc2c(-c3cnn4cc(-c5ccc(N6CCNCC6)cc5)cnc34)ccnc2c1 , is 105

# residual activity of NC1(c2ccc(-c3nc4ccn5c(=O)[nH]nc5c4cc3-c3ccccc3)cc2)CCC1 = 95

Measured residual activity, CNc1nc(-c2ccc3c(N)n[nH]c3c2)cc(N2C[C@@H](C(=O)NC3CCCCC3)CC[C@H]2C)n1 : 108

Looking up CC1=C(CO)C(=O)O[C@@H]([C@@H](C)[C@H]2CC[C@H]3[C@@H]4C[C@H]5O[C@]56[C@@H](O)C=CC(=O)[C@]6(C)C4CC[C@]23C)C1 (some centres not stated) , I found its residual activity recorded as 97
